- TARGET_DESC: T1, HTRA3, P83110
- T1 sequence (P83110 354-453, limits assumed, looked up): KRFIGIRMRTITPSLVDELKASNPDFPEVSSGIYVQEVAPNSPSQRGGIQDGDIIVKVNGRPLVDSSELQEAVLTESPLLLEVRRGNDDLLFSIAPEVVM
- ASSAY_PROCEDURE: holdup assay
- Set-up: key: below the threshold = too weak to quantify, mostly under pKd 3.1 to 4
- RUN_PARAMETERS: plain residues with an end cap or a label only (N-terminal biotin on a linker: ttds)
Property: pKd; scope: individual binders
QUANTITY_MEASURED: pKd

* SGSRPSATVV [HPV73-E6, Q82005] | 3.7
* QRQARSETLV [HPV59-E6, Q81964] | 3.69

Measured values drawn from paper PMC9482650 for this set.
